- measured on: human GLP-1 receptor (human, UniProt P43220 24-463)
- experimental details: cell-based or functional assay
metric name: EC50, CreLuc reporter, 100% hP (nM)
Use nM as the unit, but write only the number.

See these solved cases before continuing.
>  <binder>
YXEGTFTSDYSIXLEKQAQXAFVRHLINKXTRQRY (Aib at 2, 13, 20, 30; Lys29 epsilon-amino: C18DA-gGlu-gGlu-gGlu-gGlu-gGlu-gGlu-eLys; C-terminal amide) [Compound 92]

>  <EC50, CreLuc reporter, 100% hP (nM)>
2

$$$$
>  <binder>
YXEGTFTSDYSIELEKQAQXAFVRHLINKXTRQRY (Aib at 2, 20, 30; Lys29 epsilon-amino: C18DA-gGlu-gGlu-gGlu-gGlu-gGlu-gGlu-eLys; C-terminal amide) [Compound 160]

>  <EC50, CreLuc reporter, 100% hP (nM)>
27

$$$$
>  <binder>
YXEGTFTSDYSIXLEKQAQXAFVRALINKXTRQRY (Aib at 2, 13, 20, 30; Lys29 epsilon-amino: C18DA-gGlu-gGlu-gGlu-gGlu-gGlu-gGlu-eLys; C-terminal amide) [Compound 128]

>  <EC50, CreLuc reporter, 100% hP (nM)>
4

$$$$

# ---- query binder ----
Task: Item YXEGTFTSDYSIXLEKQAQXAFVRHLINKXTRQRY (Aib at 2, 13, 20, 30; Lys29 epsilon-amino: C20DA-gGlu-gGlu-gGlu-gGlu-gGlu-gGlu-gGlu; C-terminal amide) [Compound 101] has what recorded EC50, CreLuc reporter, 100% hP?
Result: 20
